# subject of test: human TdT (Homo sapiens)
# Construct: purchased Trevigen (Gaithersburg, MD)
# Sequence (P04053 whole entry): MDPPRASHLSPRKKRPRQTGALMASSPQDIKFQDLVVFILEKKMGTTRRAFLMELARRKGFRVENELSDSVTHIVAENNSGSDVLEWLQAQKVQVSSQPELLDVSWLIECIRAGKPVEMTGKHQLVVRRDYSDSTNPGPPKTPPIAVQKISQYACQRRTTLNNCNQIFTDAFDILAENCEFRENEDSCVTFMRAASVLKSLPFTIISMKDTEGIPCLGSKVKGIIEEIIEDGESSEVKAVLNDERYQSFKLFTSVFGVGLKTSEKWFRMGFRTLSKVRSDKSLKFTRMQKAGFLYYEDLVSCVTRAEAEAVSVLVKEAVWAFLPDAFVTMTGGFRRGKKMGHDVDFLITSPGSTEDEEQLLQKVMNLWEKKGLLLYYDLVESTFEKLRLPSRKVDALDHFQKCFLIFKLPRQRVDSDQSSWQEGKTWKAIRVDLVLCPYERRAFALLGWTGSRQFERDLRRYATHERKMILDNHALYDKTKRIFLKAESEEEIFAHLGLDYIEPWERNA
# protocol: Terminal transferase assay, TdT
# Assay type: biochemical
# condition description: human TdT, Mn2+ as cofactor; read-out: ID50 (µM) Mn2+
# Method: Recombinant full-length human DNA polymerase λ and β were generated and purified as described. […] Terminal Transferase Assay. […] Terminal transferase activity was monitored in the presence of 10% DMSO or in the presence of increasing amounts of inhibitors dissolved in DMSO. […] Insoluble radioactive material was determined by scintillation counting using Trilux beta-counter (PerkinElmer) as described. […]
endpoint name: log10(IC50) (log10 of the value in µM)

molecule | subject of test | log10(IC50)
O=C(O)/C(O)=C/C(=O)c1ccn(Cc2ccc(F)cc2)c1 [Compound 12a] | human TdT (Homo sapiens) | 0.45
O=C(/C=C(\O)C(=O)O)/C=C/c1cc(C(=O)c2ccccc2)cn1S(=O)(=O)c1ccc(F)cc1 | human TdT (Homo sapiens) | -0.48
O=C(/C=C(\O)C(=O)O)/C=C/c1cc(-c2ccccc2)cn1Cc1ccc(F)cc1 | human TdT (Homo sapiens) | 0.84
CCOC(=O)/C(O)=C/C(=O)/C=C/c1cc(C(=O)c2cc(OC)c(OC)c(OC)c2)c[nH]1 | human TdT (Homo sapiens) | 0.11
O=C(/C=C(\O)C(=O)O)/C=C/c1cc(C(=O)c2ccc3c(c2)OCCO3)cn1Cc1ccc(F)cc1 | human TdT (Homo sapiens) | 0.61
